- SYSTEM: T1, 4H2198-AA
- T1 chain: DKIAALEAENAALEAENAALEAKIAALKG
- ASSAY_INFO: two-hybrid library CCmax;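 also: natural log of median RNA to DNA barcode read ratio; higher means stronger binding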
- TEST_CONTEXT: mean of both orientations
Measured interaction score values are reported for all entries that follow.
REPORTED_ENDPOINT: interaction score

* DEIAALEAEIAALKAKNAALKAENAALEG [4H123-AA] | -0.461
* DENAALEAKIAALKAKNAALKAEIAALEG [4H1401-AA] | 1.85
* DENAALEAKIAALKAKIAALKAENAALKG [4H1388-AA] | -1.08
* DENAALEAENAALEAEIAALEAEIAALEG [4H1153-AA] | -1.56
* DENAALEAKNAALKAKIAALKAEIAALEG [4H1513-AA] | 1.63
* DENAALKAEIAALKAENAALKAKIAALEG [4H1629-AA] | -1.33
* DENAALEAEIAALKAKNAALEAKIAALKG [4H1142-AA] | -1.52
* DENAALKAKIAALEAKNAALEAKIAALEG [4H1845-AA] | -1.5
* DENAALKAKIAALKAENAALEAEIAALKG [4H1874-AA] | -1.15
* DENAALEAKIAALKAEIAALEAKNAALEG [4H1351-AA] | -1.4
* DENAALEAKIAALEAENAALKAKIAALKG [4H1310-AA] | -0.878
* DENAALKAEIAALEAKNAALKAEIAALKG [4H1594-AA] | -1.61
